Property Label: melting point

Reported melting point for `Cc1nc(N2CCNCC2)nc(N2CCSCC2)c1C#N` : what is it?
146 to 148 °C

# melting point lookup, item Cn1cnc(S(=O)(=O)Nc2cc(C(c3cc(F)ccc3F)S(=O)(=O)c3ccc(Cl)cc3)c(Cl)cn2)c1 (stereo not given)
294 to 296 °C

I'd like to know its melting point. The molecule in question is `Cc1ccc(Cl)cc1N1CCCN(CC(C)C)C1=S`
96 to 98 °C

Record request: melting point value, item `O=C(Nc1ccc(Cl)c(Cl)c1)NS(=O)(=O)c1ccc(Cl)cc1`
195 to 196 °C

What measured melting point goes with CC(C)(C)c1ccc(C2=NC[C@@H](O)[C@H](c3ccccc3)O2)cc1 (racemic) ?
50 °C

Quick check: melting point of `O=C(O)CCCCCCCCCCCCCCCCCCI` ?
70 to 71.5 °C

Reported melting point for `N#Cc1ccc(N(Cc2ccccc2)n2cnnc2)cc1-c1ccc(OS(N)(=O)=O)cc1` : what is it?
157 to 160 °C

// returns reported melting point for input Cc1cc(C)cc(C(=O)N2CCC(N3CCC(OC(=O)c4cc(Cl)cc(Cl)c4)CC3)CC2Cc2ccccc2)c1 (stereo not given)
83.3 °C

Entry CCOCC1(O)c2ccccc2CCc2cc(OC)c(OC)cc21 (stereo not given) has what melting point?
98 to 100 °C

// melting point lookup, key: `O=C(O)Cc1cccc2c1N=C(c1ccccc1F)CC2=O`
243 to 245 °C

***
Give the measured melting point of `COc1ccc(Cn2cnc3c(-c4ccco4)nc(C#N)nc32)cc1` .
205 to 207 °C

Param item = O=C(C=Cc1ccc([N+](=O)[O-])cc1)N1CCc2c([nH]c3ccccc23)C1c1ccc2c(c1)OCO2 (stereo not given) ; retrieve measured melting point.
158 °C

Sample `Cc1ccc(C(=O)c2c(O)c3cc(C)ccc3[nH]c2=S)cc1` — what was its melting point?
280 °C

// query melting point value for entry `Cc1cc(C)cc(P(=O)(O)O)c1`
197 to 199 °C

Any idea what its melting point is? The molecule is `CCCOc1ccccc1-c1nc2nc(NCCCSC)ncc2c(=O)[nH]1`
173 to 174 °C
